Tested on: GlcNAc(b1-3)Gal(b1-4)GlcNAc(b1-3)Gal(b1-4)GlcNAc(b1-3)Gal(b1-4)GlcNAc(b1-3)Gal(b1-4)GlcNAc(b1-2)Man(a1-3)[GlcNAc(b1-3)Gal(b1-4)GlcNAc(b1-3)Gal(b1-4)GlcNAc(b1-3)Gal(b1-4)GlcNAc(b1-3)Gal(b1-4)GlcNAc(b1-2)Man(a1-6)]Man(b1-4)GlcNAc(b1-4)GlcNAc
Assay: glycan array binding signal (z-score within array); higher = stronger binding
Stated conditions: glycan notation: IUPAC condensed, linker removed
About 410 targets per protein were measured; listed, in parts, are those with the strongest signals and a random draw of the rest.
Observation type: glycan array binding signal (z-score)
Please give only the number in your answer, with no unit.

Kindly note the recorded glycan array binding signal (z-score) for Pwp3 (Candida glabrata) (protein) MGSSHHHHHHSSGLVPRGSHMASKNPVDFTTVCQFPDNFSKKPGFLATTARLGLWITGNSYKELLNYPGTFTLTTQQASTTTPNIQLRGTDLFTTIYGLTVYPLYLLVELQGYFVPTQSGMYTFSLTGSDDAAIIFIGNPSTFPCDAFKTWPQATANDITVTDSINPSRTLYMVKGVAYPLRIAYYNGLGNGVLNAAFTDPSGTKRTDWNGYIWQYDQCSTCTYK , which is -0.439
